- measurement_target: BRD4-BD2 (Homo sapiens, UniProt O60885)
- test_method_notes: bromoKdELECT assay for binding affinity to BRD4-BD2
- particulars: Table 7
pKd: −log10 of the molar value.
Listed here are compounds together with their documented pKd.

CCNC(=O)C[C@@H]1N=C(c2ccc(OCCOC3CCN(c4ncc(C(=O)N[C@H]5C(C)(C)[C@H](Oc6ccc(C#N)c(Cl)c6)C5(C)C)cn4)CC3)cc2)c2c(sc(C)c2C)-n2c(C)nnc21 [Compound I-60]; 6.30 to 7.30
Cc1sc2c(c1C)C(c1ccc(OCCOC3CCN(c4ncc(C(=O)N[C@H]5C(C)(C)[C@H](Oc6ccc(C#N)c(Cl)c6)C5(C)C)cn4)CC3)cc1)=N[C@@H](CC(=O)OC(C)(C)C)c1nnc(C)n1-2 [Compound I-235]; < 5.60

pKd for COCC[C@@H]1N=C(c2ccc(CCCOC3CCN(c4ncc(C(=O)N[C@H]5C(C)(C)[C@H](Oc6ccc(C#N)c(Cl)c6)C5(C)C)cn4)CC3)cc2)c2c(sc(C)c2C)-n2c(C)nnc21 [Compound I-227] ?
< 5.60
